Target: PDE4B2 (Homo sapiens)
Construct: expressed in transfected cells; host or cells: Flp-In-293 (Flpin-293-PDE4B2 [sic])
Experiment: PDE4B2 enzyme experiment (AMP-glo, cAMP substrate)
Type: biochemical
Details: read-out: PDE4B2 Enzyme Inhibition% @10 nM
REPORTED ENDPOINT: inhibition at 0.01 µM (%)

# COMPOUND SMILES, SYSTEM TESTED, inhibition at 0.01 µM [%]
rows = [
    ("[O-][S@+]1CCc2nc(N3CCc4c(Br)csc4C3)nc(NC3(CO)CCC3)c21", "PDE4B2 (Homo sapiens)", 58.9),
]

1: N#Cc1ccc2c(c1)CN(c1nc3c(c(NC4(CO)CCC4)n1)[S@+]([O-])CC3)C2
2: Cn1c(=O)c2c(c3ccc(Cl)cc31)CCN(c1nc3c(c(NC4(CO)CCC4)n1)[S@+]([O-])CC3)C2
# compare inhibition at 0.01 µM for 1 vs 2 ; return the one with the smaller value Write down the label of the entry you select. 1
(1: 65.8%, 2: 99.8%)

----------
Biological target: PDE4B2 (Homo sapiens, UniProt Q07343)
Construct: expressed in transfected cells; host or cells: Flp-In-293 (Flpin-293-PDE4B2 [sic])
Sequence (Q07343 1-564 isoform Q07343-2): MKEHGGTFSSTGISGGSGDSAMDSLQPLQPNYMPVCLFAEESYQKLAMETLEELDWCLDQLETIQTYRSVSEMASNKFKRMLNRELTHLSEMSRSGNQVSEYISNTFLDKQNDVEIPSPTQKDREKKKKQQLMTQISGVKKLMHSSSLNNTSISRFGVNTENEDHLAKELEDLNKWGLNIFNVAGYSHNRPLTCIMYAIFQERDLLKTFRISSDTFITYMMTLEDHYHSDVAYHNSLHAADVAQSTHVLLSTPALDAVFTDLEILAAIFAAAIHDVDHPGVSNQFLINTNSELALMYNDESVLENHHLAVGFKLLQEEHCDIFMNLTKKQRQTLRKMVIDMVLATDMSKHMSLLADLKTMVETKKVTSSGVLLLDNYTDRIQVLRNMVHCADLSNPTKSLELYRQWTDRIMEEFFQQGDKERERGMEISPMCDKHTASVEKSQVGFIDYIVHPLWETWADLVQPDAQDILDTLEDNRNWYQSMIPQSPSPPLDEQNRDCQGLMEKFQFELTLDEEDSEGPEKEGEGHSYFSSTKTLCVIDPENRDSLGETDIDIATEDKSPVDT
Assay: PDE4B2 enzyme experiment (AMP-glo, cAMP substrate)
Type: biochemical
Settings: 10 nM
REPORTED ENDPOINT: PDE4B2 Enzyme Inhibition% @10 nM (%)

Below, 2 compounds whose answers are already recorded.
# COMPOUND, PDE4B2 Enzyme Inhibition% @10 nM / %
data = [
    ("[O-][S+]1CCc2nc(N3CCc4ccsc4C3)nc(NC3(CO)CCC3)c21 (centres unmarked) [Compound 36]", 74.54),
    ("COc1ccc2c(c1)CCN(c1nc3c(c(NC4(CO)CCC4)n1)[S+]([O-])CC3)CC2 (centres unmarked) [Compound 47]", 98.41),
]

1: [O-][S+]1CCc2nc(N3CCc4ccc(Br)cc4CC3)nc(NC3(CO)CCC3)c21 (centres unmarked) [Compound 46]
2: Cn1nc2c(c1Cl)CN(c1nc3c(c(NC4(CO)CCC4)n1)[S+]([O-])CC3)CC2 (centres unmarked) [Compound 58]
Between 1 and 2 , whose recorded PDE4B2 Enzyme Inhibition% @10 nM is greater? Write down the label of the entry you select. 1

----------
Target: PDE4B2 (Homo sapiens)
Construct: expressed in transfected cells; host or cells: Flp-In-293 (Flpin-293-PDE4B2 [sic])
Test: PDE4B2 cell experiment (cAMP, Eu-cAMP tracer / Ulight-anti-cAMP)
Format: cell-based
Settings: Flpin-293-PDE4B2 cells, Foskolin
REPORTED ENDPOINT: IC50 (nM)

# COMPOUND, REPORTED ENDPOINT, EXPERIMENTAL RESULT
records = [
    ("[O-][S@+]1CCc2nc(N3CC[C@@H]4c5ccc(Cl)cc5OC[C@H]4C3)nc(NC3(CO)CCC3)c21", "IC50", 16.5),
]

a: O=[N+]([O-])c1ccc2c(c1)CCN(c1nc3c(c(NC4(CO)CCC4)n1)[S+]([O-])CC3)C2 (stereo not shown)
b: Cc1nc2c(s1)CN(c1nc3c(c(NC4(CO)CCC4)n1)[S+]([O-])CC3)CC2 (stereo not shown)
c: COc1ccc2c(c1)CCN(c1nc3c(c(NC4(CO)CCC4)n1)[S+]([O-])CC3)C2 (stereo not shown)
Parameters: sort_field (IC50), sort_dir (desc). # respond with the labels, arranged in the requested order b, c, a

# credit: patent EP4678644A1
